Target: BSA (Bos taurus, UniProt P02769)
Sequence (P02769 25-607): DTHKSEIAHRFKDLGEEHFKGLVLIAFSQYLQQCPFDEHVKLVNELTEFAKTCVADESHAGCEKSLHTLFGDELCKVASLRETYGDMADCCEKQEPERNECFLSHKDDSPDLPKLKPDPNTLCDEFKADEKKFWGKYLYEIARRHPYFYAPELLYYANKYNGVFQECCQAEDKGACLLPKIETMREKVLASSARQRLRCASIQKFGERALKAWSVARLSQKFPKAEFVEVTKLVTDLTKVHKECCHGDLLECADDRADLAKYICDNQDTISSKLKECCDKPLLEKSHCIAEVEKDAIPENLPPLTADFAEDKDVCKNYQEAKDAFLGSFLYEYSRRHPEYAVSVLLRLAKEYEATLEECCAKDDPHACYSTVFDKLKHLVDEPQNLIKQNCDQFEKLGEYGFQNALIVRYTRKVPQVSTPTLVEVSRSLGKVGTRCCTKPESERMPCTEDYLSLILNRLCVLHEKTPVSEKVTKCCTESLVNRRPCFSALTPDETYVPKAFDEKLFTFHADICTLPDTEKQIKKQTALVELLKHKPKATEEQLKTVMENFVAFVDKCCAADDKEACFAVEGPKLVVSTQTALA
Assay: Absorbance/emission spectra, fluorescence enhancement and quantum yield of dyes in solution +/- BSA (Example 21)
Type: physicochemical, bovine
Details: 150 μg/mL BSA, 10 mM Tris-HCl, pH 7.5, 0.05% SDS
The entries below are paired with their reported EM λ max, BSA.
Express the result in nm but write the number alone.

Below, each entry is followed by its recorded EM λ max, BSA result.
{"columns": ["RECORD SMILES", "EM λ max, BSA [nm]"],
 "data": [
  ["CCn1c2ccccc2c2cc(/C=C/c3cc[n+](CCCS(=O)(=O)[O-])cc3)ccc21", 553],
  ["CCn1c2ccccc2c2cc(/C=C/c3cc[n+](CCCC(=O)O)c4ccccc34)ccc21.[Cl-]", 609],
  ["CCn1c2ccccc2c2cc(/C=C/c3ccc4ccccc4[n+]3CCCCS(=O)(=O)[O-])ccc21", 587],
  ["CCOCC(=O)CCC[n+]1ccc(/C=C/c2ccc3c(c2)c2ccccc2n3CC)c2ccccc21.[Br-]", 612],
  ["CCCCc1cc(/C=C/c2ccc3c(c2)c2ccccc2n3CC)c2ccccc2[n+]1-c1ccccc1.[Cl-]", 623],
  ["CCn1c2ccccc2c2cc(/C=C/c3sc4ccccc4[n+]3CCCS(=O)(=O)[O-])ccc21", 576]
]}

Here's the next entry for you.
For "CCn1c2ccccc2c2cc(/C=C/c3cc[n+](CCCCS(=O)(=O)[O-])c4ccccc34)ccc21" the molecule record lists EM λ max, BSA as 604

---

Molecular target: BSA (Bos taurus, UniProt P02769)
Assay: Absorbance/emission spectra, fluorescence enhancement and quantum yield of dyes in solution +/- BSA (Example 21)
Assay type: physicochemical, bovine
Conditions: 150 μg/mL BSA, 10 mM Tris-HCl, pH 7.5, 0.05% SDS
PROPERTY: EM λ max, BSA (nm)
Express the result in nm but write the number alone.

{"columns": ["COMPOUND", "EXPERIMENTAL TARGET", "PROPERTY", "MEASURED VALUE"],
 "data": [
  ["CCn1c2ccccc2c2cc(/C=C/C3=[N+](CCCCCC(=O)O)c4ccc(S(=O)(=O)[O-])cc4C3(C)C)ccc21 [Compound 18]", "BSA (Bos taurus, UniProt P02769)", "EM λ max, BSA", 590]
]}

Here's the next entry for you.
For O=S(=O)([O-])CCCC[n+]1ccc(/C=C/c2ccc3c(c2)c2ccccc2n3-c2ccccc2)c2ccccc21 [Compound 15] the compound record lists EM λ max, BSA as 591

---

Molecular target: BSA (Bos taurus, UniProt P02769)
Test: Absorbance/emission spectra, fluorescence enhancement and quantum yield of dyes in solution +/- BSA (Example 21)
Assay type: physicochemical, bovine
Details: 150 μg/mL BSA, relative to fluorescein in 0.1 M NaOH, 470 nm excitation
PROPERTY: Quantum Yield (BSA)
Response field accepts a number only; no unit should be typed.

Below, each entry is followed by its recorded Quantum Yield (BSA) result.
{"columns": ["COMPOUND", "Quantum Yield (BSA)"],
 "data": [
  ["CCCCc1cc(/C=C/c2ccc3c(c2)c2ccccc2n3CC)c2ccccc2[n+]1-c1ccccc1.[Cl-] [Compound 16]", 0.17],
  ["CCn1c2ccccc2c2cc(/C=C/c3cc[n+](CCCC(=O)O)c4ccccc34)ccc21.[Cl-] [Compound 11]", 0.21],
  ["CCOCC(=O)CCC[n+]1ccc(/C=C/c2ccc3c(c2)c2ccccc2n3CC)c2ccccc21.[Br-] [Compound 10]", 0.21],
  ["CCn1c2ccccc2c2cc(/C=C/c3cc[n+](CCCCS(=O)(=O)[O-])c4ccccc34)ccc21 [Compound 9]", 0.21],
  ["CCn1c2ccccc2c2cc(/C=C/C3=[N+](CCCCCC(=O)O)c4ccc(S(=O)(=O)[O-])cc4C3(C)C)ccc21 [Compound 18]", 0.01],
  ["CCn1c2ccccc2c2cc(/C=C/c3cc[n+](CCCS(=O)(=O)[O-])cc3)ccc21 [Compound 13]", 0.24],
  ["CCn1c2ccccc2c2cc(/C=C/c3ccc4cc(OC)ccc4[n+]3C)ccc21 [Compound 17]", 0.04],
  ["CCn1c2ccccc2c2cc(/C=C/c3sc4ccccc4[n+]3CCCS(=O)(=O)[O-])ccc21 [Compound 14]", 0.08]
]}

For CCn1c2ccccc2c2cc(/C=C/c3ccc4ccccc4[n+]3CCCCS(=O)(=O)[O-])ccc21 [Compound 12] the compound record lists Quantum Yield (BSA) as 0.10

For O=S(=O)([O-])CCCC[n+]1ccc(/C=C/c2ccc3c(c2)c2ccccc2n3-c2ccccc2)c2ccccc21 [Compound 15] the compound record lists Quantum Yield (BSA) as 0.25

Value source: patent US6579718B1
